Where do the numbers come from? From patent EP2970215B1.

Molecular target: human GlyT1c transporter (Homo sapiens, UniProt P48067)
Construct: expressed in transfected cells; host or cells: CHO cells (recombinant; line hGlyT1c_5_CHO is named for the uptake assay)
Sequence (P48067 1-706): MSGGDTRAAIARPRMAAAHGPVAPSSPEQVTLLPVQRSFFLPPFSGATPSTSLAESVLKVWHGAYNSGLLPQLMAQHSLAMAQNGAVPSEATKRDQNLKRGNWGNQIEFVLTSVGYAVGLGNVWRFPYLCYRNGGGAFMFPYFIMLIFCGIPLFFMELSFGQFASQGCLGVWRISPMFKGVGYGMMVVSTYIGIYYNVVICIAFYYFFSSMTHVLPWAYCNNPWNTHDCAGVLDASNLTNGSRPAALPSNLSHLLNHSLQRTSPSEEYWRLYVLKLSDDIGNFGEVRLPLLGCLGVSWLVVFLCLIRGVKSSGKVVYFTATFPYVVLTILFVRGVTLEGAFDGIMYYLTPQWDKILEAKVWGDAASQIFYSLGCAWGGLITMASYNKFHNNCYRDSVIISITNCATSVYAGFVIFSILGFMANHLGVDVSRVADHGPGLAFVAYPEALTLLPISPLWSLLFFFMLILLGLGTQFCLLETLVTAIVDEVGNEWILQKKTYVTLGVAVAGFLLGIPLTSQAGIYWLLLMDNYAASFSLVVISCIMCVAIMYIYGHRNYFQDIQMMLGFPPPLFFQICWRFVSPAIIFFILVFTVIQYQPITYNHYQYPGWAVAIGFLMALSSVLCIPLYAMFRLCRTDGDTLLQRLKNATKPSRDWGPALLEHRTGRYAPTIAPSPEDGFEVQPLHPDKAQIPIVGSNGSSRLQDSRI
Assay: Radioligand binding assay using recombinant CHO cell membranes expressing human GlyT1
Conditions: radioligand binding to human GlyT1c transporter-expressing membranes
Excerpt: 2. Radioligand binding assays using recombinant CHO cell membranes expressing human GlyT1: […]
pKi: −log10 of the molar value.
Measured endpoint: pKi

I am curious: what pKi value has been reported for CCCNC(=O)CO[C@@H]1CN(S(=O)(=O)c2cn(C)cn2)C[C@H]1c1ccc(F)cc1 (relative stereo) ?
≥ 6.00

I am curious: what pKi value has been reported for Cn1cnc(S(=O)(=O)N2C[C@@H](Nc3ccc(C(F)(F)F)c(Cl)c3)[C@H](c3ccc(F)cc3)C2)c1 (relative stereo) ?
≥ 6.00

I am curious: what pKi value has been reported for Cn1cnc(S(=O)(=O)N2C[C@@H](Nc3cccc(Cl)c3)[C@H](c3ccc(F)cc3)C2)c1 (relative stereo) [Example 94] ?
≥ 8.00

I am curious: what pKi value has been reported for Cn1cnc(S(=O)(=O)N2C[C@H](Nc3cc(-c4ccccc4F)ncn3)[C@@H](c3ccc(F)cc3)C2)c1 ?
≥ 7.00

I am curious: what pKi value has been reported for Cn1cnc(S(=O)(=O)N2C[C@@H](Nc3ccccc3C(F)(F)F)[C@H](c3ccccc3)C2)c1 (relative stereo) ?
≥ 5.00
